# Species: Homo sapiens
# Test protocol: Binding affinity to human IgG assessed as association rate constant by SPR analysis
Bridge positions count the residues as written; N and C are the ends. Square brackets hold non-standard residues; d marks the D form. Peptide text beside a SMILES is read from it. * marks the point of attachment. ξ: configuration not given here. NH(4-OH-benzyl) = Oc1ccc(CN*)cc1; ξ2Thi = NC(Cc1cccs1)C(=O)O; ξCha = NC(CC1CCCCC1)C(=O)O
Measured endpoint: Ka (M⁻¹ s⁻¹)
# output: bare number, implied unit M⁻¹ s⁻¹

Observe how each entry below is paired with its result.
Compound	Ka [M⁻¹ s⁻¹]
CC(=O)N[C@@H](CC(=O)O)C(=O)N[C@H]1CSSC[C@@H](C(=O)N[C@H](C(=O)N[C@@H](Cc2ccccc2)C(=O)N[C@@H](Cc2cnc[nH]2)C(=O)NCc2ccc(O)cc2)[C@@H](C)O)NC(=O)[C@H](Cc2c[nH]c3ccccc23)NC(=O)[C@H](C(C)C)NC(=O)[C@H](CC(C)C)NC(=O)[C@H](CCC(=O)O)NC(=O)CNC(=O)[C@H](CCCCN)NC(=O)[C@H](Cc2cnc[nH]2)NC(=O)[C@H](Cc2ccc(O)cc2)NC(=O)[C@H](C)NC1=O (Ac-DCAYHKGELVWCTFH-{NH(4-OH-benzyl)}; disulfide 2-12)	603000
CC(=O)N[C@@H](CC(=O)O)C(=O)N[C@H]1CSSC[C@@H](C(=O)N[C@H](C(=O)N[C@@H](Cc2ccccc2)C(=O)NC(Cc2ccccn2)C(N)=O)[C@@H](C)O)NC(=O)[C@H](Cc2c[nH]c3ccccc23)NC(=O)[C@H](C(C)C)NC(=O)[C@H](CC(C)C)NC(=O)[C@H](CCC(=O)O)NC(=O)CNC(=O)[C@H](CCCCN)NC(=O)[C@H](Cc2cnc[nH]2)NC(=O)[C@H](Cc2ccc(O)cc2)NC(=O)[C@H](C)NC1=O (mixture of isomers)	764000
CC(=O)N[C@@H](CC(=O)O)C(=O)N[C@H]1CSSC[C@@H](C(=O)N[C@H](C(=O)N[C@@H](Cc2ccccc2)C(=O)N[C@H](Cc2ccccn2)C(N)=O)[C@@H](C)O)NC(=O)[C@H](Cc2c[nH]c3ccccc23)NC(=O)[C@H](C(C)C)NC(=O)[C@H](CC(C)C)NC(=O)[C@H](CCC(=O)O)NC(=O)CNC(=O)[C@H](CC(C)C)NC(=O)[C@H](Cc2cnc[nH]2)NC(=O)[C@H](Cc2ccc(O)cc2)NC(=O)[C@H](C)NC1=O	1.32e+06
CC(=O)N[C@@H](CC(=O)O)C(=O)N[C@H]1CSSC[C@@H](C(=O)N[C@H](C(=O)N[C@@H](Cc2ccccc2)C(=O)NC(CC2CCCCC2)C(N)=O)[C@@H](C)O)NC(=O)[C@H](Cc2c[nH]c3ccccc23)NC(=O)[C@H](C(C)C)NC(=O)[C@H](CC(C)C)NC(=O)[C@H](CCC(=O)O)NC(=O)CNC(=O)[C@H](CCCCN)NC(=O)[C@H](Cc2cnc[nH]2)NC(=O)[C@H](Cc2ccc(O)cc2)NC(=O)[C@H](C)NC1=O (stereo partly specified) (Ac-DCAYHKGELVWCTF[ξCha]-NH2; disulfide 2-12)	776000
CC(=O)N[C@@H](CC(=O)O)C(=O)N[C@H]1CSSC[C@@H](C(=O)N[C@H](C(=O)N[C@@H](Cc2ccccc2)C(=O)NC(Cc2ccccn2)C(N)=O)[C@@H](C)O)NC(=O)[C@H](Cc2c[nH]c3ccccc23)NC(=O)[C@H](C(C)C)NC(=O)[C@H](CC(C)C)NC(=O)[C@H](CCC(=O)O)NC(=O)CNC(=O)[C@H](CC(C)C)NC(=O)[C@H](Cc2cnc[nH]2)NC(=O)[C@H](Cc2ccc(O)cc2)NC(=O)[C@H](C)NC1=O (mixture of isomers)	1.49e+06

Consider the additional compound presented here.
Which value of Ka has been reported for CC(=O)N[C@@H](CC(=O)O)C(=O)N[C@H]1CSSC[C@@H](C(=O)N[C@H](C(=O)N[C@@H](Cc2ccccc2)C(=O)NC(Cc2cccs2)C(N)=O)[C@@H](C)O)NC(=O)[C@H](Cc2c[nH]c3ccccc23)NC(=O)[C@H](C(C)C)NC(=O)[C@H](CC(C)C)NC(=O)[C@H](CCC(=O)O)NC(=O)CNC(=O)[C@H](CCCCN)NC(=O)[C@H](Cc2cnc[nH]2)NC(=O)[C@H](Cc2ccc(O)cc2)NC(=O)[C@H](C)NC1=O (stereo partly specified) (Ac-DCAYHKGELVWCTF[ξ2Thi]-NH2; disulfide 2-12) in the records?
771000

* * *

# Test protocol: Binding affinity to human IgG assessed as dissociation constant by SPR analysis
Bridge positions count the residues as written; N and C are the ends. Square brackets hold non-standard residues; d marks the D form. Peptide text beside a SMILES is read from it. ξ: configuration not given here. ξ3Pal = NC(Cc1cccnc1)C(=O)O
Measured endpoint: Kd (nM)
# output: bare number, implied unit nM

Which value of Kd has been reported for CC(=O)N[C@@H](CC(=O)O)C(=O)N[C@H]1CSSC[C@@H](C(=O)N[C@H](C(=O)N[C@@H](Cc2ccccc2)C(=O)NC(Cc2cccnc2)C(N)=O)[C@@H](C)O)NC(=O)[C@H](Cc2c[nH]c3ccccc23)NC(=O)[C@H](C(C)C)NC(=O)[C@H](CC(C)C)NC(=O)[C@H](CCC(=O)O)NC(=O)CNC(=O)[C@H](CCCCN)NC(=O)[C@H](Cc2cnc[nH]2)NC(=O)[C@H](Cc2ccc(O)cc2)NC(=O)[C@H](C)NC1=O (stereo partly specified) (Ac-DCAYHKGELVWCTF[ξ3Pal]-NH2; disulfide 2-12) in the records?
550

* * *

compounds and their reported Kd
# Test protocol: Binding affinity to human IgG assessed as dissociation constant by SPR analysis
Bridge positions count the residues as written; N and C are the ends. Square brackets hold non-standard residues; d marks the D form. Peptide text beside a SMILES is read from it. * marks the point of attachment. ξ: configuration not given here. NH(4-OH-benzyl) = Oc1ccc(CN*)cc1; ξ2Thi = NC(Cc1cccs1)C(=O)O
# output: bare number, implied unit nM

Compound	Kd (nM)
CC(=O)N[C@@H](CC(=O)O)C(=O)N[C@H]1CSSC[C@@H](C(=O)N[C@H](C(=O)N[C@@H](Cc2ccccc2)C(=O)NC(Cc2cccs2)C(N)=O)[C@@H](C)O)NC(=O)[C@H](Cc2c[nH]c3ccccc23)NC(=O)[C@H](C(C)C)NC(=O)[C@H](CC(C)C)NC(=O)[C@H](CCC(=O)O)NC(=O)CNC(=O)[C@H](CCCCN)NC(=O)[C@H](Cc2cnc[nH]2)NC(=O)[C@H](Cc2ccc(O)cc2)NC(=O)[C@H](C)NC1=O (some centres not stated) (Ac-DCAYHKGELVWCTF[ξ2Thi]-NH2; disulfide 2-12)	220

Consider the additional compound presented here.
Which value of Kd has been reported for CC(=O)N[C@@H](CC(=O)O)C(=O)N[C@H]1CSSC[C@@H](C(=O)N[C@H](C(=O)N[C@@H](Cc2ccccc2)C(=O)N[C@@H](Cc2cnc[nH]2)C(=O)NCc2ccc(O)cc2)[C@@H](C)O)NC(=O)[C@H](Cc2c[nH]c3ccccc23)NC(=O)[C@H](C(C)C)NC(=O)[C@H](CC(C)C)NC(=O)[C@H](CCC(=O)O)NC(=O)CNC(=O)[C@H](CCCCN)NC(=O)[C@H](Cc2cnc[nH]2)NC(=O)[C@H](Cc2ccc(O)cc2)NC(=O)[C@H](C)NC1=O (Ac-DCAYHKGELVWCTFH-{NH(4-OH-benzyl)}; disulfide 2-12) in the records?
203

* * *

compounds and their reported Kd
# Test protocol: Binding affinity to human IgG assessed as dissociation constant by SPR analysis
Bridge positions count the residues as written; N and C are the ends. Square brackets hold non-standard residues; d marks the D form. Peptide text beside a SMILES is read from it. ξ: configuration not given here. ξOrn = NCCCC(N)C(=O)O
# output: bare number, implied unit nM

Compound	Result value
CC(=O)N[C@@H](CC(=O)O)C(=O)N[C@H]1CSSC[C@@H](C(=O)N[C@H](C(=O)N[C@@H](Cc2ccccc2)C(=O)NC(CCCN)C(N)=O)[C@@H](C)O)NC(=O)[C@H](Cc2c[nH]c3ccccc23)NC(=O)[C@H](C(C)C)NC(=O)[C@H](CC(C)C)NC(=O)[C@H](CCC(=O)O)NC(=O)CNC(=O)[C@H](CCCCN)NC(=O)[C@H](Cc2cnc[nH]2)NC(=O)[C@H](Cc2ccc(O)cc2)NC(=O)[C@H](C)NC1=O (some centres not stated) (Ac-DCAYHKGELVWCTF[ξOrn]-NH2; disulfide 2-12)	710

Which value of Kd has been reported for CC(=O)N[C@@H](CC(=O)O)C(=O)N[C@H]1CSSC[C@@H](C(=O)N[C@H](C(=O)N[C@@H](Cc2ccccc2)C(=O)N[C@@H](C)C(N)=O)[C@@H](C)O)NC(=O)[C@H](Cc2c[nH]c3ccccc23)NC(=O)[C@H](C(C)C)NC(=O)[C@H](CC(C)C)NC(=O)[C@H](CCC(=O)O)NC(=O)CNC(=O)[C@H](CCCCN)NC(=O)[C@H](Cc2cnc[nH]2)NC(=O)[C@H](Cc2ccc(O)cc2)NC(=O)[C@H](C)NC1=O (Ac-DCAYHKGELVWCTFA-NH2; disulfide 2-12) in the records?
841
